# key: entry, value: composite z-score
SYSTEM: Neurogenic locus notch homolog protein 2 (Homo sapiens)
EXPERIMENT: Notch2 binders on small-molecule microarrays, primary screen, biochemical, small-molecule microarray, 635 nm fluorescence, stem cell growth factors (AID 1073)
EXPERIMENTAL_PARAMETERS: Notch2 binding, higher = more signal
PROPERTY_NAME: composite z-score

# MOLECULE, SYSTEM, PROPERTY_NAME, ENDPOINT_RESULT
measured = [
    ("C=C(C)C1CCC(C(O)C2C=CC3C(=O)N(C)C(=O)C3N2Nc2cc(OC)c(OC)c(OC)c2)CC1 (configuration not stated)", "Neurogenic locus notch homolog protein 2 (Homo sapiens)", "composite z-score", 1.57),
    ("C=CCN1C(=O)[C@]2(O[C@H](CCO)[C@@H]([Si](C)(C)c3ccc(OC)cc3)[C@@H]2C)c2cc(NC(=O)c3ccc(OC)cc3)ccc21", "Neurogenic locus notch homolog protein 2 (Homo sapiens)", "composite z-score", 0.384),
    ("[N-]=[N+]=NCc1ccccc1[C@@H]1OC(c2ccc(OCCCO)cc2)=N[C@]1(Cc1ccccc1N=[N+]=[N-])C(=O)NCCN1CCOCC1", "Neurogenic locus notch homolog protein 2 (Homo sapiens)", "composite z-score", 1.56),
    ("CC(C)C[C@@H]1NC(=O)[C@H]2C[C@@H](C(=O)NCCCCCN)[C@@H](c3cccc(OCCO)c3)N2C1=O", "Neurogenic locus notch homolog protein 2 (Homo sapiens)", "composite z-score", -0.182),
    ("CN1C(=O)C2C(C1=O)C1C=C(CCCO)C2C(C2CC2)N1Cc1cc2c(cc1Br)OCO2 (configuration not stated)", "Neurogenic locus notch homolog protein 2 (Homo sapiens)", "composite z-score", 0.713),
    ("CN1C(=O)C2C=CC(C(O)c3ccc(I)cc3)N(Nc3ccccc3)C2C1=O (configuration not stated)", "Neurogenic locus notch homolog protein 2 (Homo sapiens)", "composite z-score", 1.26),
    ("COCCOC(=O)N1C(=O)[C@@]2(c3cc(C#CCCO)ccc31)[C@H](C(=O)N1CCCCCCC1)[C@H]1C(=O)O[C@H](c3ccccc3)[C@H](c3ccccc3)N1[C@@H]2c1ccccc1OCCO", "Neurogenic locus notch homolog protein 2 (Homo sapiens)", "composite z-score", 1.43),
]

Where do the numbers come from? From PubChem BioAssay.
